System: K86415-001-R-J1-PDC complex spheroids, viability;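 note: spheroids exposed to agents for seven days before readout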
Assay: Anticancer human tumor K86415-001-R-J1-PDC patient-derived lung adenocarcinoma cell line growth inhibition [RAS]; active = viability on the fitted dose curve at most 10% of control; inactive = the rest
Conditions: second compound 0.003 µM; first compound 0.00316 µM
Respond with a class label; see t for active, f for inactive

Nc1ccn(C2OC(CO)C(O)C2(F)F)c(=O)n1 (centres undefined) + CCn1c(-c2cccnc2C(C)OC)c2c3cc(ccc31)N1CCOC(CC(NC(=O)C(C(C)C)N(C)C(=O)C3(F)CCN(C(=O)C#CC(C)(C)N(C)C)CC3)C(=O)N3CCCC(N3)C(=O)OCC(C)(C)C2)C1; f
C=CC(=O)N1CCN(c2nc(OCC3CCCN3C)nc3c(F)c(-c4nc(N)cc(C)c4C(F)(F)F)c(Cl)cc23)C(C)C1 (centres undefined) + CCn1c(-c2cc(N3CCN(C)CC3)cnc2C(C)OC)c2c3cc(ccc31)-c1csc(n1)CC(NC(=O)C1CC1C)C(=O)N1CCCC(N1)C(=O)OCC(C)(C)C2; t
C=CC(=O)Nc1cc(Nc2nccc(-c3cn(C)c4ccccc34)n2)c(OC)cc1N(C)CCN(C)C + CCn1c(-c2cc(N3CCN(C)CC3)cnc2C(C)OC)c2c3cc(ccc31)-c1csc(n1)CC(NC(=O)C1CC1C)C(=O)N1CCCC(N1)C(=O)OCC(C)(C)C2; f

Now look at this entry.
q: Assay outcome for C=CC(=O)N1CCN(c2nc(OCC3CCCN3C)nc3c(F)c(-c4nc(N)cc(C)c4C(F)(F)F)c(Cl)cc23)C(C)C1 (centres undefined) + CCn1c(-c2cccnc2C(C)OC)c2c3cc(ccc31)N1CCOC(CC(NC(=O)C(C(C)C)N(C)C(=O)C3(F)CCN(C(=O)C#CC(C)(C)N(C)C)CC3)C(=O)N3CCCC(N3)C(=O)OCC(C)(C)C2)C1 : what was it?
a: f
